target: Endothelial PAS domain-containing protein 1 (Homo sapiens) (UniProt Q99814); assay: HIF-2a and HIF-1a reporter inhibition panel, dose response, selectivity assay for HIF-2a inhibitor project, cell-based, luminescence (AID 651581); details: HIF-2a, run 2
property: pIC50
// pIC50 here means minus log10 of the molar concentration (mol/L)

Query: # return recorded pIC50 for input `Nc1nc2ccc(S(=O)(=O)c3ccc4nc(N)sc4c3)cc2s1`
Response: 4.83

Query: # return recorded pIC50 for input `Cc1ccc(S(=O)(=O)Nc2cccc3cccnc23)c([N+](=O)[O-])c1`
Response: 5.44

Query: # return recorded pIC50 for input `O=c1[nH]c2ccc(Br)cc2c(=O)o1`
Response: 4.70

Query: # return recorded pIC50 for input `Cc1c(CCC(=O)N2CCC[C@H]2C(=O)O)c(=O)oc2cc3oc4c(c3cc12)CCCC4`
Response: 6.24

Query: # return recorded pIC50 for input `CC(=O)Nc1ccc(OCC(=O)c2ccc(C)cc2C)cc1`
Response: 5.66

Query: # return recorded pIC50 for input `Cc1c(CCC(=O)N2CCC(C(=O)O)(c3ccccc3)CC2)c(=O)oc2cc3oc4c(c3cc12)CCCC4`
Response: 5.91

Query: # return recorded pIC50 for input CCN(CC)CCCC(C)n1c2nc(=O)[nH]c(=O)c-2nc2cc(Cl)ccc21 (stereo not drawn)
Response: 5.02

Query: # return recorded pIC50 for input `Cc1ccoc1C(=O)Nc1ccc(CC(=O)O)cc1`
Response: 6.42

Query: # return recorded pIC50 for input `CSc1ccc(/C=N/Nc2cccc(C(=O)O)c2)cc1`
Response: 5.27

Query: # return recorded pIC50 for input `Cc1c(CCC(=O)O)c(=O)oc2cc3oc4c(c3cc12)CCCC4`
Response: 6.54

Query: # return recorded pIC50 for input `CCc1ccc(S(=O)(=O)ON2C(=O)c3ccccc3C2=O)cc1`
Response: 5.02

Query: # return recorded pIC50 for input `CCOC(=O)C1CCN(C(=O)CCc2c(C)nc3cc(-c4ccccc4)nn3c2C)CC1`
Response: 5.90

Query: # return recorded pIC50 for input `O=C(O)c1cccc(CSc2nnc(COc3ccccc3)o2)c1`
Response: 5.21

Query: # return recorded pIC50 for input `CC(C)COc1ccc(C(=S)N2CCCC2)cc1`
Response: 5.27

Query: # return recorded pIC50 for input `Cc1c(CCC(=O)O)c(=O)oc2cc(OCc3ccccc3Br)ccc12`
Response: 5.18

Query: # return recorded pIC50 for input `COc1ccc(-c2cnc3c(NC=O)cc(-c4cccc(NS(C)(=O)=O)c4)cn23)cc1OC`
Response: 4.97

Query: # return recorded pIC50 for input `CNC(=O)NC(=O)COC(=O)CCCSc1nc2ccccc2s1`
Response: 5.36

Query: # return recorded pIC50 for input `CCOC(=O)Cc1csc(NC(=S)NC(=O)c2ccccc2)n1`
Response: 5.44

Query: # return recorded pIC50 for input `Cc1cc(C(=O)Nc2cccc(C(=O)O)c2)oc1C`
Response: 5.21

Query: # return recorded pIC50 for input `Cc1nc(SCCC(=O)O)c2cc(-c3ccccc3)sc2n1`
Response: 6.64

Query: # return recorded pIC50 for input `COC(=O)CSc1nnc(-c2sc3ccccc3c2Cl)o1`
Response: 5.58

Query: # return recorded pIC50 for input `Cn1ncc2c(O/N=C(\N)c3ccc(C(C)(C)C)cc3)ncnc21`
Response: 5.39
